ASSAY_SUMMARY: Toxicity in Zebrafish
Set-up: species or system Danio rerio
MEASUREMENT_CONDITIONS: in vivo, read-out: MNCC
MEASUREMENT_NAME: MNTC (µg/mL)
Just the number in µg/mL, nothing appended.

MNTC recorded for this compound, `CCN(C)C(=O)Oc1ccc(/C=C/C(=O)N2CCc3ccccc3C2)cc1OC` , is 3.12

* * *

EXPERIMENTAL_SYSTEM: UniProt:P81908
Sequence (P81908 whole entry): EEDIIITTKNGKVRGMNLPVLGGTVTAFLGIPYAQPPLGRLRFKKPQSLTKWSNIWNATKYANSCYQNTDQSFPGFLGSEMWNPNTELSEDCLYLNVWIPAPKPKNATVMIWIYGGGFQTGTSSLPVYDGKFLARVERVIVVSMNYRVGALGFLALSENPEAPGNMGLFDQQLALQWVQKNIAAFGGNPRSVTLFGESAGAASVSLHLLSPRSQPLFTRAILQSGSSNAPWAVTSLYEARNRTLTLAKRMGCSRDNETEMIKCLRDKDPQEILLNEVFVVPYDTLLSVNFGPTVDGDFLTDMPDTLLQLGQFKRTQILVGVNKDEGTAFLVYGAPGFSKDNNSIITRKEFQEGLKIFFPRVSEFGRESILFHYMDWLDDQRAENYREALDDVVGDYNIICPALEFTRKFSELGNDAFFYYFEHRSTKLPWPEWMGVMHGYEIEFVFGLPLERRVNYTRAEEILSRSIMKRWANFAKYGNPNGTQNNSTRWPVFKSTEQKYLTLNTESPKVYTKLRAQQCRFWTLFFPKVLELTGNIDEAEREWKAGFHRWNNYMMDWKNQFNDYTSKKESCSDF
ASSAY_SUMMARY: Inhibition of equine serum BuChE using BTC as substrate after 15 mins by Ellman's method
Recorded IC50 by entry
Just the number in µM, nothing appended.

[
  {
    "QUERY_SMILES": "CCN(C)C(=O)Oc1ccc(/C=C/C(=O)N2CCCCC2)cc1OC",
    "MEASUREMENT_NAME": "IC50",
    "RECORDED_NUMBER": 19.6
  },
  {
    "QUERY_SMILES": "CCN(C)C(=O)Oc1ccc(/C=C/C(=O)N2CCc3ccccc3C2)cc1",
    "MEASUREMENT_NAME": "IC50",
    "RECORDED_NUMBER": 3.8
  }
]

Item `CCN(C)C(=O)Oc1ccc(/C=C/C(=O)N2CCC(Cc3ccccc3)CC2)cc1` was tested on UniProt:P81908; the reported IC50 is 5.3
